- SYSTEM UNDER TEST: T1, CD71 apical domain (UniProt P02786 189-383, limits assumed)
- T1 construct: domain: Apical domain
- T1 sequence (P02786 189-383 limits assumed): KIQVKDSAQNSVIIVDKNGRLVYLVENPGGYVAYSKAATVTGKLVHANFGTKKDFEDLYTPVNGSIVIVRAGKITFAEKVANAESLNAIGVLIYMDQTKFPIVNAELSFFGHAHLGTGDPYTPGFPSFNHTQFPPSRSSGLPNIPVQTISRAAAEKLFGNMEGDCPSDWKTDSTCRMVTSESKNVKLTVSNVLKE
- ASSAY PROTOCOL: solution ELISA, signal ratio to HSA
Class assignment keyed on apical domain:HSA, ranges low (below 30), medium (30 to below 300), high (300 or more)

Sample answers from the record:
BINDER: SEQ ID NO 184 (designed binder, FN3 domain) MLPAPKNLVVSRVTEDSARLSWTAPDAAFDSFFIGYLEPQPPGEAIDLAVPGSERSYDLTGLKPGTEYSVLIHGVKGGLLSSPLSFTT
CAT: low

BINDER: SEQ ID NO 114 (designed binder, FN3 domain) MLPAPKNLVVSRVTEDSARLSWTTPDAAFDSFFIGYLEPQPPGEAISLQVPGSERSYDLTGLKPGTEYNVTIQGVKGGFPSSPLFAVFTT
CAT: medium

BINDER: SEQ ID NO 157 (designed binder, FN3 domain) MLPAPKNLVVSRVTEDSARLSWTAPDAAFDSFYIAYAEPRPDGEAILLHVPGSERSYDLTGLKPGTEYSVLIHGVKGGLLSSPLSAISTT
CAT: medium

BINDER: SEQ ID NO 201 (designed binder, FN3 domain) MLPAPKNLVVSRVTEDSARLSWTAPDAAFDSFYIAYAEPRPDGEAISLWVPGSERSYDLTGLKPGTEYSVLIHGVKGGLLSSPLLAHFTT
CAT: medium

BINDER: SEQ ID NO 145 (designed binder, FN3 domain) MLPAPKNLVVSRVTEDSARLSWTAPDAAFDSFYIAYAEPRPDGEAILLQVPGSERSYDLTGLKPGTEYSVLIHGVKGGLLSSPLTAIFTT
CAT: high

# classify by apical domain:HSA band: SEQ ID NO 113 (designed binder, FN3 domain) MLPAPKNLVVSRVTEDSARLSWTAPDAAFDSFYIAYAEPRPDGEAINLQVPGSERSYDLTGLKPGTEYSVLIHGVKGGLLSSPLVAFFTT
medium

Hello team, could you let me know which band the following binder falls into: SEQ ID NO 141 (designed binder, FN3 domain) MLPAPKNLVVSRVTEDSARLSWTAPDAAFDSFYIAYAEPRPDGEAIFLGVPGSERSYDLTGLKPGTEYSVLIHGVKGGLLSSPLIAFFTT
medium

Categorize the following entry: SEQ ID NO 183 (designed binder, FN3 domain) MLPAPKNLVVSRVTEDSARLSWTAPDAAFDSFYIAYAEPRPDGEAILLDVPGSERSYDLTGLKPGTEYSVLIHGVKGGFPSMPLSAIFTT
high

Returns: class label. Input: SEQ ID NO 163 (designed binder, FN3 domain) MLPAPKNLVVSRVTEDSARLSWTAPDAAFDSFFIGYLEPQPPGEAIYLEVPGSERSYDLTGLKPGTEYNVTIQGVKGGFPSFPLKAAFTT
low
